Molecular target: Aβ42 (Homo sapiens)
Test: Th-T (thioflavin-T) assay of Aβ42 aggregation
Format: biochemical
Conditions: column suffix _50; reading M3
PARAMETER: Th-T assay signal, mean of three wells (Fig. 7a)
# output: bare number, no unit

Given the entry C=C1CCC2C(C)(CCC=C(C)C)C(O)CCC2(C)C1Cc1c(OC)oc(CO)c(C)c1=O (centres unmarked) , report its measured Th-T assay signal, mean of three wells (Fig. 7a). 2.409

Another: C=C1CCC2C(C)(CCC=C(C)C)C(O)CCC2(C)C1Cc1c(OC)oc(CO)c(C(=O)OC)c1=O (centres unmarked) 0.2987

Field entry: C=C1CC[C@@H]2[C@](C)(CC[C@H]3O[C@H](C=C(C)C)C[C@@]23C)[C@@H]1Cc1c(OC)oc(CO)c(C)c1=O 0.2032

Here is the next compound: C=C1CC[C@@H]2[C@](C)(CC[C@H]3O[C@H](C=C(C)C)C[C@@]23C)[C@@H]1Cc1c(OC)oc(CO)c(C(=O)OC)c1=O 0.2148

Next up:
Recorded Th-T assay signal, mean of three wells (Fig. 7a) of C=C1CCC2C(C)(CCC=C(C)C)C(O)CCC2(C)C1Cc1c(OC)oc(C)c(C(=O)OC)c1=O (centres unmarked) , please. 0.4558

====

Molecular target: Aβ42 (Homo sapiens, UniProt P05067)
Sequence (P05067 672-713): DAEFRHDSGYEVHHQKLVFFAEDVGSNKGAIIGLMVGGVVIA
Assay: Th-T (thioflavin-T) assay of Aβ42 aggregation
Type: biochemical
Conditions: column suffix _20; reading M97
# cutoff 2 applies to Fig. 7a Th-T reading, mean of three wells; >= gives met, < gives not met

Use these answered entries as a reference point.
Assess whether reported Fig. 7a Th-T reading, mean of three wells for C=C1CC[C@@H]2[C@](C)(CC[C@H]3O[C@H](C=C(C)C)C[C@@]23C)[C@@H]1Cc1c(OC)oc(CO)c(C(=O)OC)c1=O sits at 2 or higher. not met

Please do the same for C=C1CC[C@@H]2[C@](C)(CC[C@H]3O[C@H](C=C(C)C)C[C@@]23C)[C@@H]1Cc1c(OC)oc(CO)c(C)c1=O as well. met

Next compound up: C=C1CCC2C(C)(CCC=C(C)C)C(O)CCC2(C)C1Cc1c(OC)oc(C)c(C(=O)OC)c1=O (centres unmarked) not met

Please do the same for C=C1CCC2C(C)(CCC=C(C)C)C(O)CCC2(C)C1Cc1c(OC)oc(CO)c(C)c1=O (centres unmarked) as well. met

Turning to the following compound.
Could you verify whether the entry C=C1CCC2C(C)(CCC=C(C)C)C(O)CCC2(C)C1Cc1c(OC)oc(CO)c(C(=O)OC)c1=O (centres unmarked) shows Fig. 7a Th-T reading, mean of three wells of no less than 2? not met

====

Molecular target: UniProt P05067
Assay: Th-T (thioflavin-T) assay of Aβ42 aggregation
Assay type: biochemical
Settings: column suffix _20; reading M14
The following molecules are listed with their measured Th-T assay signal, mean of three wells (Fig. 7a) values.
Provide a numeric answer; units are not to be included.

Record request: Th-T assay signal, mean of three wells (Fig. 7a) value, item C=C1CCC2C(C)(CCC=C(C)C)C(O)CCC2(C)C1Cc1c(OC)oc(CO)c(C)c1=O (centres unmarked) 2.612

Again, but for C=C1CC[C@@H]2[C@](C)(CC[C@H]3O[C@H](C=C(C)C)C[C@@]23C)[C@@H]1Cc1c(OC)oc(CO)c(C)c1=O 1.832

Likewise for C=C1CC[C@@H]2[C@](C)(CC[C@H]3O[C@H](C=C(C)C)C[C@@]23C)[C@@H]1Cc1c(OC)oc(CO)c(C(=O)OC)c1=O ? 0.1953

Param item: C=C1CCC2C(C)(CCC=C(C)C)C(O)CCC2(C)C1Cc1c(OC)oc(C)c(C(=O)OC)c1=O (centres unmarked) 0.5807

How about C=C1CCC2C(C)(CCC=C(C)C)C(O)CCC2(C)C1Cc1c(OC)oc(CO)c(C(=O)OC)c1=O (centres unmarked) ? 0.184

====

Target: Aβ42 (Homo sapiens, UniProt P05067)
Test: Th-T (thioflavin-T) assay of Aβ42 aggregation
Format: biochemical
Conditions: reading M25; Supplementary Fig. 47 source data
PARAMETER: Th-T fluorescence, mean of three wells
// no unit, no text: just the number

Example compounds with recorded Th-T fluorescence, mean of three wells:
GET /values?readout=Th-T fluorescence, mean of three wells&item= C=C1CCC2C(C)(CC(=O)C=C(C)C)C(O)CCC2(C)C1Cc1c(OC)oc(CO)c(C)c1=O (centres unmarked) [Compound 19] 2.94

Same for C=C1CC[C@H]2[C@]3(C)C[C@H](C=C(C)C)O[C@H]3CC[C@]2(C)[C@@H]1Cc1c(OC)oc(CO)c(C)c1=O [Compound 18] 3.637

Then C=C1CC[C@H]2[C@]3(C)C[C@H](C=C(C)C)O[C@H]3CC[C@]2(C)[C@@H]1Cc1c(OC)oc(C)c(C)c1=O [Compound 24] ? 3.926

Quick one: C=C1CCC2C(C)(CC(=O)C=C(C)C)C(O)CCC2(C)C1Cc1c(OC)oc(C)c(C)c1=O (centres unmarked) [Compound 25] 3.518

Now, please, on to the next compound.
Returns the measured Th-T fluorescence, mean of three wells for the input compound. Input: C=C1CC[C@H]2[C@]3(C)C[C@@H](C=C(C)C)O[C@H]3CC[C@]2(C)[C@@H]1Cc1c(OC)oc(CO)c(C)c1=O [Compound 17] 2.851

====

Molecular target: Aβ42 (Homo sapiens)
Assay: Th-T (thioflavin-T) assay of Aβ42 aggregation
Format: biochemical
Settings: measurement M11; source data, Ab alone and No Ab as controls
// bucketize Th-T assay plate reading, mean of three wells (Supplementary Fig. 47): low group: < 0.7; middle group: ≥ 0.7 and < 0.8; high group: ≥ 0.8

Recorded results for 6 molecules are shown here.
Please indicate the class for C=C1CC[C@H]2[C@]3(C)C[C@@H](C=C(C)C)O[C@H]3CC[C@]2(C)[C@@H]1Cc1c(OC)oc(CO)c(C)c1=O based on its Th-T assay plate reading, mean of three wells (Supplementary Fig. 47). high group

Further, for C=C1CC[C@@H]2[C@](C)(CC[C@H]3O[C@H](C=C(C)C)C[C@@]23C)[C@@H]1Cc1c(O)c(C)c(C)oc1=O ? middle group

Also C=C1CCC2C(C)(CC(=O)C=C(C)C)C(O)CCC2(C)C1Cc1c(O)c(C)c(C)oc1=O (centres unmarked) ? middle group

C=C1CCC2C(C)(CCC=C(C)C)C(O)CCC2(C)C1Cc1c(OC)oc(CO)c(C)c1=O (centres unmarked) ? high group

What do you get for C=C1CC[C@H]2[C@]3(C)C[C@H](C=C(C)C)O[C@H]3CC[C@]2(C)[C@@H]1Cc1c(O)c(C)c(C)oc1=O ? middle group

Please give the result for C=C1CC[C@H]2[C@]3(C)C[C@H](C=C(C)C)O[C@H]3CC[C@]2(C)[C@@H]1Cc1c(OC)oc(CO)c(C)c1=O too. middle group

Others:
Dear colleague, I would appreciate it if you could identify the bin for C=C1CC[C@@H]2[C@](C)(CC[C@H]3O[C@H](C=C(C)C)C[C@@]23C)[C@@H]1Cc1c(OC)oc(CO)c(C(=O)OC)c1=O and reply at your convenience. low group

Item: CC(C)=CCC/C(C)=C/CC/C(C)=C/CC/C(C)=C/Cc1c(O)c(C)c(C)oc1=O high group

Proceed to C=C1CCC2C(C)(CCC=C(C)C)C(O)CCC2(C)C1Cc1c(OC)oc(C)c(C(=O)OC)c1=O (centres unmarked) low group

Now try C=C1CCC2C(C)(CC(=O)C=C(C)C)C(O)CCC2(C)C1Cc1c(OC)oc(CO)c(C)c1=O (centres unmarked) . middle group

Same question for C=C1CCC2C(C)(CCC=C(C)C)C(O)CCC2(C)C1Cc1c(OC)oc(C)c(C)c1=O (centres unmarked) [Compound 15, viridoxin A hydrolysate] please. high group

C=C1CCC2C(C)(CCC=C(C)C)C(O)CCC2(C)C1Cc1c(OC)oc(CO)c(C(=O)OC)c1=O (centres unmarked) ? low group

====

Biological target: Aβ42 (Homo sapiens)
Assay: Th-T (thioflavin-T) assay of Aβ42 aggregation
Format: biochemical
Settings: reading M121; compound at 50 (head suffix _50)
Label Criterion met when Th-T fluorescence, mean of three wells (Fig. 7a) is at or above 2; otherwise label Criterion not met.

Could you tell me if the measured Th-T fluorescence, mean of three wells (Fig. 7a) of C=C1CCC2C(C)(CCC=C(C)C)C(O)CCC2(C)C1Cc1c(OC)oc(CO)c(C)c1=O (centres unmarked) reaches 2 or more? Criterion not met

Then what about the compound C=C1CC[C@@H]2[C@](C)(CC[C@H]3O[C@H](C=C(C)C)C[C@@]23C)[C@@H]1Cc1c(OC)oc(CO)c(C(=O)OC)c1=O ? Criterion not met

Thanks! And C=C1CCC2C(C)(CCC=C(C)C)C(O)CCC2(C)C1Cc1c(OC)oc(C)c(C(=O)OC)c1=O (centres unmarked) ? Criterion not met

How about C=C1CCC2C(C)(CCC=C(C)C)C(O)CCC2(C)C1Cc1c(OC)oc(CO)c(C(=O)OC)c1=O (centres unmarked) ? Criterion not met

Here is the next item to consider.
Reported Th-T fluorescence, mean of three wells (Fig. 7a) at or above 2? C=C1CC[C@@H]2[C@](C)(CC[C@H]3O[C@H](C=C(C)C)C[C@@]23C)[C@@H]1Cc1c(OC)oc(CO)c(C)c1=O Criterion met

// data source = paper PMC7156458
